Reference source: patent US20260242735A1

Target: human CD33 I47G (human, UniProt P20138 18-364)
Sequence (P20138 18-364 I47G limits assumed): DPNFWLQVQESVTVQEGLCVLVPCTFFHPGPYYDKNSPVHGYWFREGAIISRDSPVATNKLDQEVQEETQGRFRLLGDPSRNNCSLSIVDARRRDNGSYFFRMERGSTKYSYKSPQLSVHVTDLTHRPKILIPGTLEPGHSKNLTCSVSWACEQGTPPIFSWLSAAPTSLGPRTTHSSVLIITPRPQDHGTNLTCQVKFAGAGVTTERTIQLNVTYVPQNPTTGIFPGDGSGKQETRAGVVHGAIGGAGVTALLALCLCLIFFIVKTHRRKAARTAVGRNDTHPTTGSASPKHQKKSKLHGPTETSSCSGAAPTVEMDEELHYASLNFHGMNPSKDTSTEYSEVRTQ
Experiment: flow cytometry, mutant on cells, IgG

{"columns": ["BINDER", "Mean % WT Binding [% WT binding]"],
 "data": [
  ["Refmab #4 (antibody, human IgG1, V domains shown, Tested in IgG format; human IgG1 Fc silent (PG-LALA)) VH: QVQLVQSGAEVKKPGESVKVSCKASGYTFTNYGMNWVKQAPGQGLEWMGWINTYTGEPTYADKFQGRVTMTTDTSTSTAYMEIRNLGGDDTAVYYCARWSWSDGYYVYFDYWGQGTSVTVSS VL: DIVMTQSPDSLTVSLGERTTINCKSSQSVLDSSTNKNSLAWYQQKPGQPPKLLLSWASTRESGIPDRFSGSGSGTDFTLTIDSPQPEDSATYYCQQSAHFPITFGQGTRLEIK", 72.5]
]}
